# experimental.system: mu receptor (Rattus norvegicus, UniProt P33535)
# Construct: The brain tissue, rat whole brain minus cerebellum for mu was homogenized; from tissue; host or cells: brain minus cerebellum of male Sprague Dawley rats, homogenate fraction
# Sequence (P33535 whole entry): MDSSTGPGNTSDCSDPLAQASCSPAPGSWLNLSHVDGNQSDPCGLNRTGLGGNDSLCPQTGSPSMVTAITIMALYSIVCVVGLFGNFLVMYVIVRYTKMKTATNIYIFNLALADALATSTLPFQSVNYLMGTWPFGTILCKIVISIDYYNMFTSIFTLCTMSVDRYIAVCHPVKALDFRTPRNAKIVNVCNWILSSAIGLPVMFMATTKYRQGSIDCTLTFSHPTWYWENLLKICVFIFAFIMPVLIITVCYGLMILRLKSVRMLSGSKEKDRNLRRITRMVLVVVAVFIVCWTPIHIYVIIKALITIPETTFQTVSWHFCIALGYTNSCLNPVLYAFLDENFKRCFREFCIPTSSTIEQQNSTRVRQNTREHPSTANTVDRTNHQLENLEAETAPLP
# procedure.summary: Naloxone [3H] opioid receptor binding assay (mu receptor)
# Parameters: species or system rat (male Sprague Dawley)
# condition.summary: 20 min, pH 7.4; 10 nM test compound; [3H]naloxone 0.5 nM; mu receptor; read-out: % displacement at 10 nM
Counter-ions that a name gives are not always drawn.
Response field class: enum, chosen by comparing inhibition at 0.01 µM against low interval = under 40%, middle interval = from 40% up to 60%, high interval = 60% and over

For the record CC(C)COC(=O)CCC(=O)N(CCN1CC[C@@](C)(c2cccc(O)c2)[C@@H](C)C1)C1CCCCC1 (relative stereo) [Example 72] , report the class its inhibition at 0.01 µM corresponds to. high interval

Which of the defined bands does the recorded inhibition at 0.01 µM of CCNC(=O)N[C@H](Cc1ccccc1)CN1CC[C@](C)(c2cccc(O)c2)[C@H](C)C1 [Example 17, hydrochloride monohydrate] sit within? low interval

Pick a category. Item: COC1CCC(OC(=O)CCCC(=O)N[C@@H](CC2CCCCC2)CN2CC[C@@](C)(c3cccc(O)c3)[C@@H](C)C2)CC1 (some centres unmarked) [Example 68] high interval

Into which bin does this compound go? C[C@H]1CN(CCN(C(=O)CC(N)=O)C2CCCCC2)CC[C@@]1(C)c1cccc(O)c1 (relative stereo) [Example 34, monohydrate] high interval

// bin(item) where item = C[C@H]1CN(CCN(C(=O)CCC(=O)OCC2CCCCC2)C2CCCCC2)CC[C@@]1(C)c1cccc(O)c1 (relative stereo) [Example 73] middle interval

Hi there! Could you help me figure out the category for CC(C)COC(=O)CCCC(=O)N[C@H](CC1CCCCC1)CN1CC[C@](C)(c2cccc(O)c2)[C@H](C)C1 [Example 58] please? low interval

Band assignment needed for C[C@H]1CN(CCN(C(=O)CCC(=O)O)c2ccccc2)CC[C@@]1(C)c1cccc(O)c1 (relative stereo) [Example 19, monohydrate] please. middle interval

----------
# experimental.system: opioid receptor (Mus musculus, UniProt P42866)
# Construct: Five CF-1 male mice (Charles River, Portage, MI); from tissue; host or cells: living CF-1 male mice (whole animal, endogenous receptor)
# Sequence (P42866 whole entry): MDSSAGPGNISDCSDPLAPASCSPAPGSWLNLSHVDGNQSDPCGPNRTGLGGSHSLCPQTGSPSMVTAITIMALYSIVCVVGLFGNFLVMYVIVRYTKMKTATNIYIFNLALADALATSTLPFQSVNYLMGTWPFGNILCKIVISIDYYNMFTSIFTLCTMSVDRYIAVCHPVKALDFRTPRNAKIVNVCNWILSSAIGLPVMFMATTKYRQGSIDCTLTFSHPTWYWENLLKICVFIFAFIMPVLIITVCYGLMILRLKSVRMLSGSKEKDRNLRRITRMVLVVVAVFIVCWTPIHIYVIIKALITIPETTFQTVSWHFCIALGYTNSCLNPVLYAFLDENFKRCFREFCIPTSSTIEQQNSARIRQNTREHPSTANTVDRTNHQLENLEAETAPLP
# procedure.summary: in vivo
# Design: species or system CF-1 male mice
# condition.summary: sc; mouse writhing test; […]; s.c. 20 min before acetic acid; read-out: AD50 (the source's name)
For each record, write down the corresponding ED50.

Identify measured ED50 corresponding to CC(=O)OC(C)OC(=O)CCCC(=O)N[C@@H](CC1CCCCC1)CN1CC[C@@](C)(c2cccc(O)c2)[C@@H](C)C1 (stereo partly drawn) [Example 67] > 40 mg/kg

Specify measured ED50 for CCCOC(=O)CCCC(=O)N[C@@H](CC1CCCCC1)CN1CC[C@](C)(c2cccc(O)c2)[C@H](C)C1 [Example 53] . > 40 mg/kg

# ---- query molecule ----
Answer with reported ED50 of C[C@@H]1CN(C[C@@H](Cc2ccccc2)NC(=O)CC(=O)O)CC[C@]1(C)c1cccc(O)c1 [Example 13, monohydrate] > 40 mg/kg

----------
# experimental.system: mu receptor (Rattus norvegicus, UniProt P33535)
# Construct: The brain tissue, rat whole brain minus cerebellum for mu was homogenized; from tissue; host or cells: brain minus cerebellum of male Sprague Dawley rats, homogenate fraction
# procedure.summary: Naloxone [3H] opioid receptor binding assay (mu receptor)
# Design: species or system rat (male Sprague Dawley)
# condition.summary: 20 min, pH 7.4, read-out: % displacement at 100 nM
Counter-ions that a name gives are not always drawn.
property: inhibition at 0.1 µM (%)
Give bare numbers, in %.

Solved entries:
Tell me inhibition at 0.1 µM reported for C[C@H]1CN(CCN(C(=O)CCC(N)=O)C2CCCCC2)CC[C@@]1(C)c1cccc(O)c1 (relative stereo) [Example 35, monohydrochloride] 99

Given the molecule C[C@H]1CN(CCCN(C(=O)CCCC(N)=O)C2CCCCC2)CC[C@@]1(C)c1cccc(O)c1 (relative stereo) [Example 37, monohydrochloride monohydrate] , write its reported inhibition at 0.1 µM. 100

Now consider a different molecule.
Please give the documented inhibition at 0.1 µM of CC(=O)NC(CCN1CC[C@@](C)(c2cccc(O)c2)[C@@H](C)C1)c1ccccc1 (stereo in doubt) 94
